experimental.target: T1, nSR100 (Mus musculus, UniProt Q8BKA3)
T1 construct: host or cells: mouse N2A cells
T1 sequence (Q8BKA3 1-608): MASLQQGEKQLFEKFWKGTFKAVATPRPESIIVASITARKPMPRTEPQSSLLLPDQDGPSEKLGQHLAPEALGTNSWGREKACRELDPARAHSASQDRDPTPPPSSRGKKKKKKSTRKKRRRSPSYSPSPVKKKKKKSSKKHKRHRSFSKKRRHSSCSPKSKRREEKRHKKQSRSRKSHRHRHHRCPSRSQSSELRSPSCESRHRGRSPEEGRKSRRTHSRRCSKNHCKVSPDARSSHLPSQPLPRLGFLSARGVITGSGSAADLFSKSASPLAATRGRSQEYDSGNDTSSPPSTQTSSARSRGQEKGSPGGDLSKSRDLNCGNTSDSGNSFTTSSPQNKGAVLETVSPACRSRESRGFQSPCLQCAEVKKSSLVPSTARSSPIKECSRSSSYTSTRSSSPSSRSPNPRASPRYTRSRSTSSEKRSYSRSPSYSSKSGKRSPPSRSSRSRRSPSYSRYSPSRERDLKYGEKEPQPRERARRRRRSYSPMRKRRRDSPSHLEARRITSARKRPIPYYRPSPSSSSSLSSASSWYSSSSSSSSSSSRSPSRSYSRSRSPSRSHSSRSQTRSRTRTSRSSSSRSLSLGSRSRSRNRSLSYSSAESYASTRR
run.description: AP-MS nSR100 interaction partners from mouse N2A cells (Table 5)
Format: binding
condition: bait Srrm4
Some molecules, each annotated with its measured MaxP (maximal SAINT score).
# output: bare number, no unit

molecule="Snrpa (protein, UniProt Q62189 1-287, looked up) U1 small nuclear …: MATIATMPVPETRANHTIYINNLNEKIKKDELKKSLYAIFSQFGQILDILVSRIMKMRGQAFVIFKEVTSATNALRSMQGFPFYDKPMRIQYAKTDSDIIAKMKGTYVERDRKREKRKPKSQETPAAKKAVQGGAAAPVVGAVQPVPGMPPMPQAPRIMHHMPGQPPYMPPPGMIPPPGLAPGQIPPGAMPPQQLMPGQMPPAQPLSENPPNHILFLTNLPEETNELMLSMLFNQFPGFKEVRLVPGRHDIAFVEFDNEVQAGAARDALQGFKITQNNAMKISFAKK" readout_number=1

Next molecule, MaxP (maximal SAINT score) to be filled in.
Asked: # get_value(readout='MaxP (maximal SAINT score)', item= Luc7l2 (protein, UniProt Q7TNC4 1-392, looked up) Putative RNA-binding protein …: MSAQAQMRAMLDQLMGTSRDGDTTRQRIKFSDDRVCKSHLLNCCPHDVLSGTRMDLGECLKVHDLALRADYEIASKEQDFFFELDAMDHLQSFIADCDRRTEVSKKRLAETQEEISAEVAAKAERVHELNEEIGKLLAKVEQLGAEGNVEESQKVMDEVEKARAKKREAEEVYRNSMPASSFQQQKLRVCEVCSAYLGLHDNDRRLADHFGGKLHLGFIEIREKLEELKRVVAEKQEKRNQERLKRREEREREEREKLRRSRSHSKNPKRSRSREHRRHRSRSMSRERKRRTRSKSREKRHRHRSRSSSRSRSRSHQRSRHSSRDRSRERSKRRSSKERFRDQDLASRDRDRSSRDRSPRDRDRKDKKRSYESANGRSEDRRSSEEREAGEI )
Given back: 1
